- Target Or System: phosphor-Axl (Homo sapiens (Human))
- Sequence (P30530 26-894): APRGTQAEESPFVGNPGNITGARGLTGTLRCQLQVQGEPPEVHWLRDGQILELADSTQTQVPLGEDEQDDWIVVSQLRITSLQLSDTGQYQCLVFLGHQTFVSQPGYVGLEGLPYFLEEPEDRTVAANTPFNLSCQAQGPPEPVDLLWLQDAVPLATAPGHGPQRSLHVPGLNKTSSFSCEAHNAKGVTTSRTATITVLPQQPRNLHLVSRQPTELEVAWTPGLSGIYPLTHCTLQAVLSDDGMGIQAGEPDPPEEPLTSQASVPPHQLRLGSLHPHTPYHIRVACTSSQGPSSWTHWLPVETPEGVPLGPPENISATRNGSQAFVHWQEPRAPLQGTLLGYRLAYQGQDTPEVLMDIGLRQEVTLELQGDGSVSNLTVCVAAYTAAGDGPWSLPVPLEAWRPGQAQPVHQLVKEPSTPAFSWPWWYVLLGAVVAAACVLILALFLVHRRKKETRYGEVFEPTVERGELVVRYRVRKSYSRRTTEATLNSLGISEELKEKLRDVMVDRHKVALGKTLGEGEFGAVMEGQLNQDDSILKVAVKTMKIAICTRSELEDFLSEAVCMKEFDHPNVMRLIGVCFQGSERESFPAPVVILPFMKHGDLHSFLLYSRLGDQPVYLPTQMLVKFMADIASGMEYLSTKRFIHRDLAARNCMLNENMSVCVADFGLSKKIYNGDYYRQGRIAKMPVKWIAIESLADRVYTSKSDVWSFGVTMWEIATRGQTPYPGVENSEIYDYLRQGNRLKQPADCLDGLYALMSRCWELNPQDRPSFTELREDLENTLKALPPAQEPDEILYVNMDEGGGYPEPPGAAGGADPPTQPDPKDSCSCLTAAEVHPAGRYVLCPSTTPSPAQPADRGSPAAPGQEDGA
- Method Summary: TAM Kinase Assay (HTRF), phosphor-Axl
- Format: biochemical
- Condition Summary: read-out: Phospho-Axl IC50
Reported Property: IC50

*Q* Looking for the measured IC50 of `Cn1cc(C(=O)NCC2(c3cccc(-c4ncnc5[nH]ccc45)c3)Cc3ccccc3C2)cn1` , can you help?
*A* > 3 µM

###

Item-by-item account of IC50
- Target Or System: c-Mer (Homo sapiens (Human), UniProt Q12866)
- Method Summary: TAM Kinase Assay (HTRF), c-Mer
- Format: biochemical
- Condition Summary: 0.0625 nM c-Mer, HTRF, 60 min room temperature; read-out: c-Mer IC50

Below, each entry is followed by its recorded IC50 result.
>  <Molecule>
NCC1(c2cccc(-c3ncnc4[nH]ccc34)c2)Cc2ccccc2C1 [Example 11]

>  <Observed Measurement>
< 500 nM

$$$$
>  <Molecule>
CN(C)CC1(c2cccc(-c3ncnc4[nH]ccc34)c2)Cc2ccccc2C1 [Example 23]

>  <Observed Measurement>
< 500 nM

$$$$

*Q* Looking for the measured IC50 of O=C(NCC1(c2cccc(-c3ncnc4[nH]ccc34)c2)Cc2ccccc2C1)c1ccno1 [Example 31] , can you help?
*A* > 3000 nM

###

Let's go through some recorded IC50 values for Tyro3 (Homo sapiens (Human)) together.

*Q* Looking for the measured IC50 of `O=C(NCC1(c2cccc(-c3ncnc4[nH]ccc34)c2)Cc2ccccc2C1)c1cccs1` , can you help?
*A* > 3 µM

*Q* Looking for the measured IC50 of CC(=O)NCC1(c2cccc(-c3ncnc4[nH]ccc34)c2)Cc2ccncc2C1 (stereo not drawn) , can you help?
*A* > 3 µM

*Q* Looking for the measured IC50 of `Cn1cc(C(=O)NCC2(c3cccc(-c4ncnc5[nH]ccc45)c3)Cc3ccccc3C2)cn1` , can you help?
*A* > 3 µM

###

- Target Or System: UniProt:Q12866
- Method Summary: TAM Kinase Assay (HTRF), c-Mer
- Type: biochemical
Reported Property: IC50

*Q* Looking for the measured IC50 of `Cn1cc(C(=O)NCC2(c3cccc(-c4ncnc5[nH]ccc45)c3)Cc3ccccc3C2)cn1` , can you help?
*A* > 3 µM

###

- Target Or System: phosphor-Axl (Homo sapiens (Human))
- Method Summary: TAM Kinase Assay (HTRF), phosphor-Axl;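 also: test enzyme was recombinant Axl protein, pre-activated by autophosphorylation with ATP and MgCl2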
- Format: biochemical
- Condition Summary: 5.1 nM phosphor-Axl, HTRF, 60 min room temperature; read-out: Phospho-Axl IC50
Reported Property: IC50

>  <Molecule>
NCC1(c2cccc(-c3ncnc4[nH]ccc34)c2)Cc2ccncc2C1 (stereo not drawn)

>  <Target Or System>
phosphor-Axl (Homo sapiens (Human))

>  <IC50>
< 500 nM

$$$$

*Q* Looking for the measured IC50 of `NCC1(c2cccc(-c3ncnc4[nH]ccc34)n2)Cc2ccccc2C1` , can you help?
*A* 1000 to 3000 nM

*Q* Looking for the measured IC50 of `FC(F)C1(c2cccc(-c3ncnc4[nH]ccc34)c2)Cc2ccccc2C1` , can you help?
*A* > 3000 nM

*Q* Looking for the measured IC50 of `COC(=O)NCC1(c2cccc(-c3ncnc4[nH]ccc34)c2)Cc2ccccc2C1` , can you help?
*A* < 500 nM

*Q* Looking for the measured IC50 of CC(=O)NCC1(c2cccc(-c3ncnc4[nH]ccc34)c2)Cc2ccncc2C1 (stereo not drawn) , can you help?
*A* 1000 to 3000 nM
